experiment: Measurement of log P values by HPLC on reversed phase columns (methods [a] pH 2.3, [b] pH 2.7, [c] pH 7.8); assay type: physicochemical; details: method [c], HPLC reversed phase, pH 7.8
Measure: logP

> print(dat)
                                    compound  endpoint.value
 1  O=C(NC1CC1c1ccc(Cl)cc1)c1ccccc1Cl (centres unmarked)       3.02^[c];
 2  O=C(NC1CC1c1ccc(Cl)cc1)c1ccccc1I (centres unmarked)       3.19^[c];
 3  O=C(NC1CC1c1ccc(Cl)cc1)c1sccc1Cl (centres unmarked)       3.45^[c];
 4  O=C(NC1CC1c1ccc(Cl)cc1)c1ccccc1C(F)(F)F (centres unmarked)       3.21^[c];
 5  O=C(NC1CC1c1ccc(Cl)cc1Cl)c1ccccc1I (centres unmarked)       3.64^[c];
 6  O=C(NC1CC1c1ccc(Cl)cc1Cl)c1ccccc1C(F)(F)F (centres unmarked)       3.62^[c];
 7  O=C(NC1CC1c1ccc(Cl)cc1Cl)c1sccc1I (centres unmarked)       4.04^[c];
 8  O=C(NC1CC1c1ccc(Cl)cc1Cl)c1c(F)cccc1F (centres unmarked)       3.29^[c];
 9  O=C(NC1CC1c1ccc(Cl)cc1Cl)c1occc1Br (centres unmarked)       3.44^[c];
10  O=C(NC1CC1c1ccc(Cl)cc1)c1c(F)cccc1F (centres unmarked)       2.89^[c];

Noted for O=C(NC1CC1c1ccc(Cl)cc1Cl)c1ccccc1F (centres unmarked) : its logP reads 3.55^[c];

Noted for O=C(NC1CC1c1ccc(Cl)cc1Cl)c1ccccc1Cl (centres unmarked) : its logP reads 3.47^[c];

Noted for O=C(NC1CC1c1ccc(Cl)cc1)c1occc1Br (centres unmarked) : its logP reads 2.98^[c];

Noted for O=C(NC1CC1c1ccc(Cl)cc1)c1sccc1I (centres unmarked) : its logP reads 3.50^[c];

Noted for O=C(NC1CC1c1ccc(Cl)cc1Cl)c1cccnc1Cl (centres unmarked) : its logP reads 2.77^[c];

Noted for O=C(NC1CC1c1ccc(Cl)cc1Cl)c1sccc1Cl (centres unmarked) : its logP reads 4.02^[c];

Noted for O=C(NC1CC1c1ccc(Cl)cc1Cl)c1ccccc1Br (centres unmarked) : its logP reads 3.52^[c];

* * *

experiment: Measurement of log P values by HPLC on reversed phase columns (methods [a] pH 2.3, [b] pH 2.7, [c] pH 7.8); format: physicochemical; conditions: reversed phase HPLC columns, pH 2.7, HPLC on reversed phase column, method [b], pH 2.7; read-out: logP
# key: entry, value: chromatographic logP
Answer with a bare number; do not write a unit.

> print(dat)
                               smiles.entry               measure  endpoint.value
1  O=C(N[C@@H]1CC[C@@H]1c1ccccc1C(F)(F)F)c1cccnc1Cl  chromatographic logP            2.64

Noted for O=C(N[C@@H]1CC[C@H]1c1ccccc1C(F)(F)F)c1cccnc1Cl : its chromatographic logP reads 2.79

* * *

test: Measurement of log P values by HPLC on reversed phase columns (methods [a] pH 2.3, [b] pH 2.7, [c] pH 7.8); assay type: physicochemical; settings: HPLC on reversed phase column, method [b], pH 2.7
# key: entry, value: logP

Illustrative cases are given below, each with its answer.
> print(dat)
                                   compound  endpoint.value
1  O=C(N[C@@H]1CC[C@@H]1c1ccc(Cl)cc1Cl)c1nccnc1Cl (relative stereo)        3.05^[b]
2  O=C(N[C@@H]1CC[C@H]1c1ccc(Cl)cc1C(F)(F)F)c1nccnc1Cl (relative stereo)        3.56^[b]
3  Cn1cc(C(=O)N[C@@H]2CC[C@@H]2c2cccc(F)c2C(F)(F)F)c(C(F)F)n1 (relative stereo)        2.75^[b]
4  O=C(N[C@@H]1CC[C@@H]1c1ccc(Br)cc1C(F)(F)F)c1ccccc1C(F)(F)F (relative stereo)        4.02^[b]
5  O=C(N[C@@H]1CC[C@@H]1c1cccc(F)c1C(F)(F)F)c1ccccc1 (relative stereo)        3.01^[b]
6  CC1=C(C(=O)NC2CCC2c2ccccc2C(F)(F)F)S(=O)(=O)CCO1 (stereo not shown)        2.49^[b]
7  O=C(N[C@@H]1CC[C@@H]1c1ccccc1C(F)(F)F)c1ccccc1[N+](=O)[O-] (relative stereo)        2.93^[b]
8  O=C(N[C@@H]1CC[C@H]1c1ccc(Cl)cc1C(F)(F)F)c1ccc(Cl)cc1Cl (relative stereo)        4.55^[b]

Noted for O=C(N[C@@H]1CC[C@@H]1c1cccc(F)c1C(F)(F)F)c1ccccc1Cl (relative stereo) : its logP reads 3.23^[b]

Noted for CS(=O)(=O)c1ccccc1C(=O)N[C@@H]1C[C@@H]1c1ccc(Cl)cc1Cl (relative stereo) : its logP reads 2.62^[b]

Noted for O=C(N[C@@H]1CC[C@@H]1c1cccc(F)c1C(F)(F)F)c1c(F)cccc1F (relative stereo) : its logP reads 3.08^[b]

Noted for O=C(N[C@@H]1CC[C@@H]1c1cccc(F)c1C(F)(F)F)c1cccnc1 (relative stereo) : its logP reads 2.12^[b]

Noted for O=C(N[C@@H]1CC[C@@H]1c1cccc(F)c1C(F)(F)F)c1cccnc1C(F)(F)F (relative stereo) : its logP reads 2.97^[b]

Noted for O=C(N[C@@H]1CC[C@H]1c1cccc(F)c1C(F)(F)F)c1cccnc1C(F)(F)F (relative stereo) : its logP reads 3.15^[b]

Noted for O=C(N[C@@H]1C[C@@H]1c1ccc(Cl)cc1Cl)c1ncccc1Br (relative stereo) : its logP reads 2.98^[b]

Noted for O=C(N[C@@H]1CC[C@H]1c1cccc(F)c1C(F)(F)F)c1c(F)cccc1F (relative stereo) : its logP reads 3.36^[b]

Noted for Cc1nc(C(F)(F)F)c(C(=O)N[C@@H]2CC[C@H]2c2ccc(Cl)cc2Cl)s1 (relative stereo) : its logP reads 3.91^[b]

Noted for O=C(N[C@@H]1C[C@@H]1c1ccc(Cl)cc1Cl)c1ccc(Cl)cc1Cl (relative stereo) : its logP reads 3.82^[b]

Noted for O=C(N[C@@H]1CC[C@@H]1c1cccc(F)c1C(F)(F)F)c1ccc(Cl)cc1Cl (relative stereo) : its logP reads 3.73^[b]

* * *

# key: entry, value: logP
experiment: Measurement of log P values by HPLC on reversed phase columns (methods [a] pH 2.3, [b] pH 2.7, [c] pH 7.8); type: physicochemical; settings: HPLC on reversed phase column, method [b], pH 2.7

Illustrative cases are given below, each with its answer.
> print(dat)
                                   molecule  measure  endpoint.value
1  O=C(N[C@@H]1CC[C@H]1c1ccc(Cl)cc1Cl)c1sccc1I (relative stereo)     logP        4.51^[b]
2  O=C(N[C@@H]1C[C@@H]1c1ccc(Cl)cc1Cl)c1ncccc1Cl (relative stereo)     logP        2.93^[b]
3  Cc1nc(C(F)(F)F)c(C(=O)N[C@@H]2CC[C@@H]2c2ccccc2C(F)(F)F)s1 (relative stereo)     logP        3.34^[b]

From here, focus on the item given below.
Noted for O=C(N[C@@H]1CC[C@@H]1c1ccc(Cl)cc1C(F)(F)F)c1ncc(C(F)(F)F)cc1Cl (relative stereo) : its logP reads 4.33^[b]

* * *

# key: entry, value: logP
experiment: Measurement of log P values by HPLC on reversed phase columns (methods [a] pH 2.3, [b] pH 2.7, [c] pH 7.8); format: physicochemical; conditions: method [b], HPLC reversed phase, pH 2.7

Illustrative cases are given below, each with its answer.
> print(dat)
                                   compound  endpoint.value
1  N#Cc1ccccc1C(=O)NC1CCCC1c1ccc(F)c(F)c1 (stereo not drawn)        2.96^[b]
2  Cc1occc1C(=O)N[C@@H]1CCC[C@H]1c1ccc(F)c(F)c1 (relative stereo)        3.17^[b]
3  O=C(NC1CC1c1ccc(Cl)cc1)c1ccccc1C(F)(F)F (stereo not drawn)        3.27^[b]

Noted for O=C(NC1CC1c1ccc(Cl)cc1)c1sccc1Cl (stereo not drawn) : its logP reads 3.51^[b]

Noted for CCc1nn(C)c(F)c1C(=O)N(C1CC1)C1CCCCC1c1ccccc1Cl (stereo not drawn) : its logP reads 4.39^[b]

Noted for Cc1nn(C)c(F)c1C(=O)N(C1CC1)C1CCCCC1c1ccccc1Cl (stereo not drawn) : its logP reads 3.94^[b]

Noted for CN(C(=O)c1c(C(F)F)nn(C)c1F)C1CCCCC1c1ccccc1 (stereo not drawn) : its logP reads 3.27^[b]

Noted for Cc1nn(C)c(F)c1C(=O)N(C1CC1)C1CCCC1c1ccccc1Cl (stereo not drawn) : its logP reads 3.71^[b]

Noted for O=C(NC1CC1c1ccc(Cl)cc1Cl)c1c(F)cccc1F (stereo not drawn) : its logP reads 3.36^[b]
